# EXPERIMENTAL TARGET: UniProtKB P08842
# PROTOCOL SUMMARY: Inhibition of steroid sulphatase activity in placental microsomes
# Format: biochemical
# Set-up: from tissue; host or cells: human term placenta (microsomal preparation)
# MEASUREMENT PARAMETERS: 10 nM; -ve % means stimulation; read-out: Placental Microcsomes % inhibition
PROPERTY NAME: inhibition at 0.01 µM (%)
API: value field is a number in %; no unit string.

Request: Write inhibition at 0.01 µM of CC(=O)NS(=O)(=O)O[C@H]1CCC2C3CCc4cc(OS(N)(=O)=O)ccc4C3CC[C@@]21C (stereo partly shown) [BLE99065] ; system used: UniProtKB P08842
Response: 9.8

Request: Write inhibition at 0.01 µM of CN(C)S(=O)(=O)O[C@H]1CCC2C3CCc4cc(O)ccc4C3CC[C@@]21C (stereo partly shown) [BLE99067] ; system used: UniProtKB P08842
Response: -0.1

Continuing:
Request: Write inhibition at 0.01 µM of C[C@]12CCC3c4ccc(OS(N)(=O)=O)cc4CCC3C1CC[C@H]2OS(=O)(=O)N(Cc1ccccc1)Cc1ccccc1 (stereo partly shown) [BLE99068] ; system used: UniProtKB P08842
Response: 4.9

Request: Write inhibition at 0.01 µM of C[C@]12CCC3c4ccc(OS(N)(=O)=O)cc4CCC3C1CC[C@@H]2OS(=O)(=O)N(Cc1ccccc1)Cc1ccccc1 (stereo partly shown) [BLE99063] ; system used: UniProtKB P08842
Response: -1.9

Request: Write inhibition at 0.01 µM of C[C@]12CCC3c4ccc(O)cc4CCC3C1CC[C@H]2OS(=O)(=O)N(Cc1ccccc1)Cc1ccccc1 (stereo partly shown) [BLE99066] ; system used: UniProtKB P08842
Response: 1.4

Request: Write inhibition at 0.01 µM of CC(=O)NS(=O)(=O)O[C@H]1CCC2C3CCc4cc(O)ccc4C3CC[C@@]21C (stereo partly shown) [BLE99058] ; system used: UniProtKB P08842
Response: 0.9

Request: Write inhibition at 0.01 µM of C[C@]12CCC3c4ccc(O)cc4CCC3C1CC[C@@H]2OS(=O)(=O)N(Cc1ccccc1)Cc1ccccc1 (stereo partly shown) [BLE99060] ; system used: UniProtKB P08842
Response: -3.2

---

# EXPERIMENTAL TARGET: oestrone sulphatase (E1-STS) (Homo sapiens)
# Sequence (P08842 22-583): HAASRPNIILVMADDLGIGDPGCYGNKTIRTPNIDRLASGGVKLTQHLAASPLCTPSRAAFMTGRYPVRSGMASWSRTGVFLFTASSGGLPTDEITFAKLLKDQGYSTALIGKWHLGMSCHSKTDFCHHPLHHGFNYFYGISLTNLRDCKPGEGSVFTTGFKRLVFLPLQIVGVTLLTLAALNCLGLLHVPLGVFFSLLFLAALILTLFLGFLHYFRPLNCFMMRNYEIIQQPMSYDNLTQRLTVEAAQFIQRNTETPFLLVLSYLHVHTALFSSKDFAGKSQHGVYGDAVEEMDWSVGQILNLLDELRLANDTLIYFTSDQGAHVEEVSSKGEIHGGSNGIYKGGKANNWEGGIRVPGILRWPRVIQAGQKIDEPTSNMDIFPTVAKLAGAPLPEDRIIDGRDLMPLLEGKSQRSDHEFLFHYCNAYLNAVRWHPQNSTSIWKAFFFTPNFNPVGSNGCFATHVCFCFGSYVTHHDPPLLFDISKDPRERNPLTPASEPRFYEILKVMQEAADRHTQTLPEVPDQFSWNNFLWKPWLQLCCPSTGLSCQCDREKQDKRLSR
# PROTOCOL SUMMARY: Inhibition of steroid sulphatase activity in placental microsomes
# Assay type: biochemical
# Parameters: from tissue; host or cells: human term placenta (microsomal preparation)
# MEASUREMENT PARAMETERS: 1 μM; -ve % means stimulation; read-out: Placental Microcsomes % inhibition
# maps each entry to its inhibition at 1 µM
API: value field is a number in %; no unit string.

Request: Give the measured inhibition at 1 µM for C[C@]12CCC3c4ccc(O)cc4CCC3C1CC[C@@H]2OS(=O)(=O)N(Cc1ccccc1)Cc1ccccc1 (stereo partly drawn)
Response: 1.36

Request: Give the measured inhibition at 1 µM for CCCCCN(CCCCC)S(=O)(=O)O[C@H]1CCC2C3CCc4cc(OS(N)(=O)=O)ccc4C3CC[C@@]21C (stereo partly drawn)
Response: 23.7

Request: Give the measured inhibition at 1 µM for C[C@]12CCC3c4ccc(O)cc4CCC3C1CC[C@H]2OS(=O)(=O)N(Cc1ccccc1)Cc1ccccc1 (stereo partly drawn)
Response: 4.5

Request: Give the measured inhibition at 1 µM for CN(C)S(=O)(=O)O[C@H]1CCC2C3CCc4cc(O)ccc4C3CC[C@@]21C (stereo partly drawn)
Response: 8.7

Continuing:
Request: Give the measured inhibition at 1 µM for C[C@]12CCC3c4ccc(OS(N)(=O)=O)cc4CCC3C1CC[C@@H]2OS(=O)(=O)N(Cc1ccccc1)Cc1ccccc1 (stereo partly drawn)
Response: 38.2

Request: Give the measured inhibition at 1 µM for C[C@]12CCC3c4ccc(OS(N)(=O)=O)cc4CCC3C1CC[C@H]2OS(=O)(=O)N(Cc1ccccc1)Cc1ccccc1 (stereo partly drawn)
Response: 58.2

Request: Give the measured inhibition at 1 µM for CC(=O)NS(=O)(=O)O[C@H]1CCC2C3CCc4cc(O)ccc4C3CC[C@@]21C (stereo partly drawn)
Response: 7.8

Request: Give the measured inhibition at 1 µM for CC12CCC3c4ccc(OS(N)(=O)=O)cc4CCC3C1CCC2=O (stereo not drawn) [EMATE, oestrone-3-sulphamate]
Response: 98

Request: Give the measured inhibition at 1 µM for CC(=O)NS(=O)(=O)O[C@H]1CCC2C3CCc4cc(OS(N)(=O)=O)ccc4C3CC[C@@]21C (stereo partly drawn)
Response: 91
